Kindly supply the reported pKd values for the records listed here.
Target: human CA-IX (Homo sapiens)
Construct: purchased Acro CA9-H82E3
Test: Surface Plasmon Resonance (SPR) binding kinetics to recombinant human CA-IX (Biacore 8K, single-cycle kinetics, 1:1 binding model)
Conditions: Chelated Metal: Lu-175; SPR, 25° C., pH 7.4; read-out: CAIX KD
pKd: −log10 of the molar value.

Inquiry: Recall and state the measured pKd for NS(=O)(=O)c1nnc(NC(=O)C23CC(c4cn(CCNC(=O)[C@@H]5CN(C(=O)CN6CCN(CC(=O)O)CCN(CC(=O)O)CCN(CC(=O)O)CC6)CCN5C(=O)C[C@H](NC(=O)C[C@H](NC(=O)Cc5ccc(S(F)(F)(F)(F)F)cc5)C(=O)O)C(=O)O)nn4)(C2)C3)s1.[Lu+3] .
Reply text: > 9.00

Inquiry: Recall and state the measured pKd for CC(CCCC(=O)N1CCOC[C@H]1C(=O)N[C@@H](CC(=O)N1CCN(C(=O)CN2CCN(CC(=O)O)CCN(CC(=O)O)CCN(CC(=O)O)CC2)C[C@@H]1C(=O)NCCn1cc(C23CC(C(=O)Nc4nnc(S(N)(=O)=O)s4)(C2)C3)nn1)C(N)=O)(c1ccc(O)cc1)c1ccc(O)cc1.[Lu+3] .
Reply text: > 9.00

Inquiry: Recall and state the measured pKd for CC(CCC(=O)N[C@@H](CC(=O)N[C@@H](CC(=O)N1CCN(C(=O)CN2CCN(CC(=O)O)CCN(CC(=O)O)CCN(CC(=O)O)CC2)C[C@H]1C(=O)NCCn1cc(C23CCC(C(=O)Nc4nnc(S(N)(=O)=O)s4)(CC2)C3)nn1)C(=O)O)C(=O)O)(c1ccc(O)cc1)c1ccc(O)cc1.[Lu+3] .
Reply text: > 9.00
